hepatocyte CLint at 1 μM overview
Measurement notes: Hepatocytes stability assay (human hepatocytes)
Assay type: in vitro ADME
Assay conditions: both sexes, human, cryopreserved hepatocytes, cryopreserved human hepatocytes (pool of 50 mixed gender); 1 μM test compound; 1×10^6 cell/mL; 37 degrees C; read-out: CLint (μL/min/million cells)
Answer with a number only, understood to be in µL/min/1e6 cells.

Worked cases, hepatocyte CLint at 1 μM given:
Ask: Entry under review: O=C1COc2ncncc2[C@H]2CC[C@H](CC2)OCC2[C@@H](NS(=O)(=O)C3CC3)CCCN12 (stereo in doubt) . Reported hepatocyte CLint at 1 μM?
Result: 5.2

Ask: Consider next the compound Cc1ccc2c(c1)C1CCC(CC1)OC[C@H]1[C@@H](NS(=O)(=O)C(C)C)CCCN1C(=O)CO2 (stereo in doubt) in the same way.
Result: 5.8

Ask: Consider next the compound Cc1ccc2c(c1)OCC(=O)N1CCC[C@H](NS(C)(=O)=O)C1CO[C@H]1CC[C@@H]2CC1 (stereo in doubt) in the same way.
Result: 6.4

Ask: Consider next the compound CS(=O)(=O)N[C@H]1CCCN2C(=O)[C@H](CO)Oc3ccccc3[C@H]3CC[C@H](CC3)OCC12 (stereo in doubt) in the same way.
Result: 6.9

Ask: Consider next the compound Cc1ccnc2c1[C@H]1CC[C@H](CC1)OCC1[C@@H](NS(=O)(=O)C(C)C)CCN1C(=O)CO2 (stereo in doubt) in the same way.
Result: 20

Note: attention shifts to another entry.
Ask: Entry under review: Cc1c(Cl)ccc2c1[C@H]1CC[C@H](CC1)OCC1[C@@H](NS(C)(=O)=O)CCCN1C(=O)CO2 (stereo in doubt) . Reported hepatocyte CLint at 1 μM?
Result: 3.9
